Data origin: PubChem BioAssay

tested on: Sonic hedgehog protein (Shh); assay: small-molecule binders of Shh protein, primary screen, biochemical, small-molecule microarray, 635/667 nm fluorescence (AID 1151); conditions: small-molecule microarray binding, 635 nm fluorescence; higher = more signal;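 also: Shh protein binding to compounds spotted on small-molecule microarray slides; score combines spot fluorescence intensity with signal-to-noise across triplicate slides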
measured-endpoint: composite z-score
Could you respond with only the numeric value?

Query Cn1c(=O)n2n(c1=O)[C@H]1[C@H](O)[C@@H]3O[C@@H]3C(=NOCc3ccccc3)[C@H]1CC2 yields composite z-score of 0.378

Per the record, C#CCCCON=C1[C@H]2CCn3c(=O)n(-c4ccccc4)c(=O)n3[C@H]2[C@H](O)[C@@H]2O[C@H]12 has composite z-score of 0.504

Looking up CCOC(=O)NN=C1C[C@@H](O)[C@@H](O)[C@@H]2[C@@H]3C(=O)N([C@@H](C)c4ccccc4)C(=O)[C@@H]3CC[C@H]12 , I found its composite z-score recorded as 0.127

Record COc1ccc(O[C@H]2C=C[C@@H](c3ccccc3)O[C@@H]2CON=CC[C@@H]2C=C[C@H](OC(C)=O)[C@@H](COC(C)=O)O2)cc1 . Reported composite z-score: 0.328

Given item O=C1[C@H]2[C@H]3[C@H](O)[C@H](O)CC(=NOCc4ccccc4)[C@@H]3CC[C@H]2C(=O)N1Cc1ccc2c(c1)OCO2 , the value recorded as its composite z-score is 0.643

So, CCOC(=O)NN=C1C[C@@H](O)[C@@H](O)[C@@H]2[C@@H]3C(=O)N(c4ccc(F)cc4F)C(=O)[C@@H]3CC[C@@H]12 ? Its composite z-score was 0.219

Entry CC(C)CON=C1C[C@@H](O)[C@@H](O)[C@@H]2[C@@H]3C(=O)N(C[C@@H]4CCCO4)C(=O)[C@@H]3CC[C@@H]12 , composite z-score reported as -0.321

The recorded composite z-score for entry CCOC(=O)[C@H](CC(C)C)NC(=O)CCC1CC(OC(=O)NCCc2ccc(F)cc2)CC2(CCCC(COC(=O)NCCc3ccccc3OC)O2)O1 (stereo not given in full) equals 0.567

Lab note: C=CC1=C[C@H](O)[C@@H]2O[C@@H]2C12OCCCO2 gave composite z-score of -0.262

Documented composite z-score of CC(=O)OC[C@H]1O[C@H](C#Cc2ccccc2)C=C[C@@H]1OC(C)=O : 0.337

What the record says about O=c1n(-c2ccccc2)c(=O)n2n1CC[C@@H]1C(=NOCc3ccccc3)[C@H]3O[C@H]3[C@@H](O)[C@@H]12 : composite z-score is -0.0835

Form field composite z-score, entry CC(C)=NOC[C@@H](C)[C@H](OCc1ccccc1)C(C)C : -0.448

Form: compound = O=C1[C@H]2[C@H]3[C@H](O)[C@H](O)CC(=NOCc4ccccc4)[C@H]3CC[C@H]2C(=O)N1Cc1ccc2c(c1)OCO2 ; composite z-score = 0.394

Please fill in: composite z-score reported for COC(=O)CC=C[C@@H](C)[C@@H](C=NO[C@@H]1O[C@H](COC(C)=O)[C@@H](OC(C)=O)[C@H](OC(C)=O)[C@H]1OC(C)=O)NS(=O)(=O)c1ccc(C)cc1 = 0.629

So for CCOC(=O)NN=C1C[C@@H](O)[C@@H](O)[C@@H]2[C@@H]3C(=O)N(Cc4ccc5c(c4)OCO5)C(=O)[C@@H]3CC[C@H]12 , the logged composite z-score turned out to be 0.14

====

Can you tell me composite z-score for the items I'm about to list?
biological target: Torsin-1A (Homo sapiens) (UniProt O14656); experiment: small-molecule binders of mutant TOR1A in lysate, primary screen, cell lysate, small-molecule microarray, COS7 lysate, 635/667 nm fluorescence (AID 1150); conditions: COS7 hTOR1A mutant lysate, 635 nm fluorescence, higher = more signal;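 also: score pools 667 nm emission and signal to noise measuring lysate protein binding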
Sequence (O14656 whole entry, looked up): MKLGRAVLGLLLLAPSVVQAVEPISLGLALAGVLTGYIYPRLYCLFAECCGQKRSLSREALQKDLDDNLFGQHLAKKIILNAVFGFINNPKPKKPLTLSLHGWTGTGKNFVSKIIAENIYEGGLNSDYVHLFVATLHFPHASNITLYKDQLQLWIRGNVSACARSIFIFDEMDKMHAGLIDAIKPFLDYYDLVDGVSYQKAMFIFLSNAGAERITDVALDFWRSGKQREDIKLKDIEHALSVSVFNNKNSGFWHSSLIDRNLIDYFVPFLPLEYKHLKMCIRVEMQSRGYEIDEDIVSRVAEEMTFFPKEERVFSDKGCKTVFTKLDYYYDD

I looked up COc1ccc(O[C@H]2C=C[C@@H](c3ccccc3)O[C@@H]2COC(=O)CCC(C)=NO[C@@H]2O[C@H](COC(C)=O)[C@@H](OC(C)=O)[C@H](OC(C)=O)[C@H]2OC(C)=O)cc1 and its composite z-score for Torsin-1A (Homo sapiens) (UniProt O14656) was 0.21

Form field, composite z-score with Torsin-1A (Homo sapiens) (UniProt O14656), item COC(=O)[C@H](C)NC(=O)CCC1CC(OC(=O)NCCc2ccc(F)cc2)CC2(CCCC(COC(=O)NCCC(C)C)O2)O1 (stereo partly drawn) : -0.0067

Case C=CC[C@@H]1C=C[C@H](ON=C(C)CCC(=O)OC[C@H]2O[C@H](c3ccccc3)C=C[C@@H]2Oc2ccc(OC)cc2)[C@@H](CO)O1 , Torsin-1A (Homo sapiens) (UniProt O14656), composite z-score recorded as -0.587

Entry CC(C)[C@@H](OCc1ccccc1)[C@H](C)C=NOC[C@@H](O)COCc1ccco1 under Torsin-1A (Homo sapiens) (UniProt O14656) had composite z-score of -0.491

O=C1CCCC(C2=CCCCC2=O)C1 (stereo not drawn) on Torsin-1A (Homo sapiens) (UniProt O14656) gives composite z-score = 0.37

Torsin-1A (Homo sapiens) (UniProt O14656) composite z-score of COC(=O)CC=C[C@@H](C)[C@@H](C=NO[C@H](C)c1cn([C@@H]2COC[C@H]2O)nn1)NS(=O)(=O)c1ccc(C)cc1 is 0.429

So the reported composite z-score for COC(=O)CC=C[C@@H](C)[C@@H](C=NOC[C@@H](O)[C@H]1O[C@@H]2OC(C)(C)O[C@@H]2[C@H]1O)NS(=O)(=O)c1ccc(C)cc1 , on Torsin-1A (Homo sapiens) (UniProt O14656), turned out to be 0.387

// assay Torsin-1A (Homo sapiens) (UniProt O14656), entry Cc1ccc(S(=O)(=O)n2c3ccccc3c3nnc(C(=O)c4ccccc4)nc32)cc1 , composite z-score value = -0.292

# composite z-score measured on Torsin-1A (Homo sapiens) (UniProt O14656) for item O=c1n(Cc2cc3c(cc2Cl)OCO3)c(=O)n2n1CC[C@@H]1C(=NOC[C@@H](O)COCc3ccco3)[C@H]3O[C@H]3[C@@H](O)[C@@H]12 = 0.156

Bench note, Torsin-1A (Homo sapiens) (UniProt O14656): entry C#CCCCON=C1C[C@@H](O)[C@@H](O)[C@@H]2[C@@H]3C(=O)N(c4ccc(F)cc4F)C(=O)[C@@H]3CC[C@@H]12 , its composite z-score = 0.0576

Torsin-1A (Homo sapiens) (UniProt O14656) data for C#CCCCON=C1[C@H]2CCn3c(=O)n(-c4ccccc4)c(=O)n3[C@H]2[C@H](O)[C@@H]2O[C@H]12 ; its composite z-score: 1.27

composite z-score of Cc1cc2c(nc1C)CCCCN2CC(C)ON=C[C@@H](C)[C@H](OCc1ccccc1)C(C)C (stereo partly drawn) , assay on Torsin-1A (Homo sapiens) (UniProt O14656), is -1.34

Case COc1cccc([C@H]2Oc3ccc(OC)cc3C(=NOC[C@@H](O)COCc3ccco3)[C@@H]2O)c1 , Torsin-1A (Homo sapiens) (UniProt O14656), composite z-score recorded as -1.38

Hey, Torsin-1A (Homo sapiens) (UniProt O14656) data for CCCNC(=O)OC[C@H]1O[C@H](CCON=Cc2ccc(C(=O)N3[C@H](c4ccc(C)cc4)[C@@H](C)CC[C@H]3C(=O)OC)cc2)C=C[C@@H]1Oc1ccc(OC)cc1 : composite z-score came out at 0.853

Field composite z-score (system: Torsin-1A (Homo sapiens) (UniProt O14656)) for entry CC(C)CON=C1C[C@@H](O)[C@@H](O)[C@@H]2[C@@H]3C(=O)N(c4ccc(F)cc4F)C(=O)[C@@H]3CC[C@H]12 = -0.0086

Lab note: compound CO[C@H]1COC(=O)CC=C[C@H](C)[C@@H](OC)COC(=O)[C@H](C)COC(=O)CC=C[C@@H]1C tested on Torsin-1A (Homo sapiens) (UniProt O14656); recorded composite z-score was 1.01

Summary: CCN1C(=O)[C@H]2[C@H]3[C@H](O)[C@H](O)CC(=NOCC(C)C)[C@@H]3CC[C@H]2C1=O , Torsin-1A (Homo sapiens) (UniProt O14656), composite z-score = 0.634

Entry CC(=O)OC[C@H]1OC(ON=CC[C@@H]2C=C[C@H](OC(C)=O)[C@@H](COC(C)=O)O2)[C@H](OC(C)=O)[C@@H](OC(C)=O)[C@@H]1OC(C)=O (stereo partly drawn) under Torsin-1A (Homo sapiens) (UniProt O14656) had composite z-score of 0.877

Given the compound COC(=O)CC=C[C@@H](C)[C@@H](C=NO[C@H](C)c1cn([C@H](CO)Cc2ccccc2)nn1)OC and test system Torsin-1A (Homo sapiens) (UniProt O14656), the measured composite z-score is 1.78

composite z-score of CCc1cc2c(nc1CC)CCN(CCC(C)=NO[C@H](C)c1cn([C@H](CO)Cc3ccccc3)nn1)C2 , assay on Torsin-1A (Homo sapiens) (UniProt O14656), is 0.978

CC(C)=CCCC(C)=CCON=C1C[C@@H](O)[C@@H](O)[C@@H]2[C@@H]3C(=O)N(C[C@@H]4CCCO4)C(=O)[C@@H]3CC[C@H]12 tested on Torsin-1A (Homo sapiens) (UniProt O14656) gave composite z-score: 1.33

Query COc1ccc(COC(=O)NN=C2C[C@@H](O)[C@@H](O)[C@@H]3[C@@H]4C(=O)N(c5cccc(Oc6ccccc6)c5)C(=O)[C@@H]4CC[C@@H]23)cc1 on Torsin-1A (Homo sapiens) (UniProt O14656); composite z-score returned: -0.101

Entry CO[C@H]1COC(=O)[C@@H](C)COC(=O)[C@@H](OCc2ccccc2)C=C[C@@H]1C , tested on Torsin-1A (Homo sapiens) (UniProt O14656), has a reported composite z-score of -0.253

# composite z-score measured on Torsin-1A (Homo sapiens) (UniProt O14656) for item CCOC(=O)NN=C1C[C@@H](O)[C@@H](O)[C@@H]2[C@@H]3C(=O)N([C@@H](C)c4ccccc4)C(=O)[C@@H]3CC[C@@H]12 = 2.5

Kindly note: Torsin-1A (Homo sapiens) (UniProt O14656), COC(=O)[C@H](C)NC(=O)CCC1CC(OC(=O)NCc2cccc3ccccc23)CC2(CCCC(COC(=O)NCC(c3ccccc3)c3ccccc3)O2)O1 (stereo partly drawn) , composite z-score value reported: 0.452

Observed composite z-score, Torsin-1A (Homo sapiens) (UniProt O14656), CCOC(=O)[C@H](CC(C)C)NC(=O)CCC1CC(OC(=O)NCCc2ccc(F)cc2)CC2(CCCC(COC(=O)NCCOc3ccccc3)O2)O1 (stereo partly drawn) : 0.15

Entry C#CCCCON=C1C[C@@H](O)[C@@H](O)[C@@H]2[C@@H]3C(=O)N(c4ccc(F)cc4F)C(=O)[C@@H]3CC[C@H]12 under Torsin-1A (Homo sapiens) (UniProt O14656) had composite z-score of 1.31

Form: item CCOC(=O)[C@H](Cc1ccccc1)NC(=O)CCC1CC(OC(=O)NCCc2ccc(F)cc2)CC2(CCCC(COC(=O)NCCc3ccc(Cl)cc3)O2)O1 (stereo partly drawn) ; test system Torsin-1A (Homo sapiens) (UniProt O14656); composite z-score: 0.837
